System: Smaller Tea Tortrix (Adxophyes sp.)
test.description: Test Example 3: insecticidal effect on smaller tea tortrix, tea leaf immersion
Type: in vivo
measurement.setup: 50 ppm, tea leaves immersed about 30 seconds, larvae, 25° C., humidity 70%, eight days after the inoculation
quantity.measured: Test Example 3 (insecticidal effect, mortality criterion)

Sample answers from the record:
{"smiles.str": "CC(=O)NCC(C)(C)NC(=O)c1c(I)cccc1C(=O)Nc1ccc(C(C(F)(F)F)C(F)(F)F)cc1C", "measured.result": "A (Mortality 100%)"}
{"smiles.str": "CSCC(C)(C)NC(=O)c1c(I)cccc1C(=O)Nc1ccc(C(C(F)(F)F)C(F)(F)F)c(Cl)c1C", "measured.result": "A (Mortality 100%)"}
{"smiles.str": "CCOC(=O)C=CC(C)(C)NC(=O)c1c(I)cccc1C(=O)Nc1ccc(C(C(F)(F)F)C(F)(F)F)cc1C", "measured.result": "A (Mortality 100%)"}
{"smiles.str": "Cc1c(NC(=O)c2cccc(I)c2C(=O)NC(C)C)ccc(C(C(F)(F)F)C(F)(F)F)c1F", "measured.result": "A (Mortality 100%)"}
{"smiles.str": "Cc1nc(C(C(F)(F)F)C(F)(F)F)ccc1NC(=O)c1cccc(I)c1C(=O)NC(C)C", "measured.result": "A (Mortality 100%)"}
{"smiles.str": "CON=CC(C)(C)NC(=O)c1c(I)cccc1C(=O)Nc1ccc(C(C(F)(F)F)C(F)(F)F)cc1C", "measured.result": "A (Mortality 100%)"}

Please look up its Test Example 3 (insecticidal effect, mortality criterion): Cc1cc(C(C(F)(F)F)C(F)(F)F)ccc1NC(=O)c1cccc([N+](=O)[O-])c1C(=O)NC(C)C
A (Mortality 100%)

---

Tested on: Common Cutworm (Spodoptera litura)
test.description: Test Example 2: insecticidal effect on common cutworm, cabbage leaf immersion
Assay type: in vivo
measurement.setup: 50 ppm, cabbage leaf immersed about 30 seconds, second-instar larvae, 25° C., eight days after the inoculation
quantity.measured: Test Example 2 (insecticidal effect, mortality criterion)

{"molecule": "CSCC(C)NC(=O)c1c(I)cccc1C(=O)Nc1ccc(C(C(F)(F)F)C(F)(F)F)nc1C (stereo not shown)", "measured.result": "A (Mortality 100%)"}
{"molecule": "CSCC(C)(C)NC(=O)c1c(I)cccc1C(=O)Nc1ccc(CC(F)(F)C(F)(F)F)cc1F", "measured.result": "A (Mortality 100%)"}

---

Tested on: Common Cutworm (Spodoptera litura)
test.description: Test Example 2: insecticidal effect on common cutworm, cabbage leaf immersion
Assay type: in vivo
measurement.setup: 50 ppm, cabbage leaf immersed about 30 seconds, second-instar larvae, 25° C., eight days after the inoculation
quantity.measured: Test Example 2 (insecticidal effect, mortality criterion)

A selection of reference data follows.
{"compound": "Cc1cc(C(C(F)(F)F)C(F)(F)F)ccc1NC(=O)c1cccc(I)c1C(=O)NC(C)C [5-21]", "measured.result": "A (Mortality 100%)"}
{"compound": "CSCC(C)(C)NC(=O)c1c(I)cccc1C(=O)Nc1ccc(C(C(F)(F)F)C(F)(F)F)nc1 [8-1]", "measured.result": "C (Mortality 89-80%)"}
{"compound": "C#CC(C)(C)NC(=O)c1c(I)cccc1C(=O)Nc1ccc(C(C(F)(F)F)C(F)(F)F)cc1C [5-24]", "measured.result": "C (Mortality 89-80%)"}
{"compound": "Cc1nc(C(C(F)(F)F)C(F)(F)F)ccc1NC(=O)c1cccc(I)c1C(=O)NC(C)(C)C[S+](C)[O-] (centres unmarked) [8-12]", "measured.result": "A (Mortality 100%)"}

Now, please, on to the next compound.
Record request: Test Example 2 (insecticidal effect, mortality criterion) value, item CC(C)NC(=O)c1c(I)cccc1C(=O)Nc1ccc(C(C(F)(F)F)C(F)(F)F)cc1F [5-50]
A (Mortality 100%)
